# Experiment summary: alpha-synuclein stem-loop luciferase translation blockers – H4 neuroglioma cells, luminescence, confirmation (AID 1988)
# Assay type: functional, cell-based
Activity calls are given as the source filed them.
Recorded metric: EC50

# example entries with known answers
COc1ccc(-c2ccc(C#N)c(SCC(=O)Nc3sc4c(c3C#N)CCC4)n2)cc1OC    11.1 µM (active)
[O-]c1ccccc1-[n+]1c(-c2ccccc2)cc(-c2ccccc2)cc1-c1ccccc1    > 120 µM (not active)
COc1ccc(O)c(/C=N/NC(=O)c2ccc(OCc3cccc(Br)c3)cc2)c1    2.97 µM (active)

Now consider a different molecule.
Which EC50 value belongs to `N=c1ccn(CC(=O)c2ccc(-c3ccccc3)cc2)cc1` ?
7.33 µM (active)

* * *

# Experiment summary: microbe, parasite or virus in culture
# Assay type: functional
# Condition label: Mycobacterium tuberculosis
The source made the active and inactive calls.
Recorded metric: CC50

Hi, could you look up CC50 for each item in my list?
1. CN(C)c1ccc(-c2cc(O)c3ncccc3c2)cc1
2. CCc1cc(C(=O)Nc2nc(-c3ccccn3)cs2)sc1C
3. Brc1ccc2c(c1)C(OC1CN3CCC1CC3)c1ccccc1CS2 (centres undefined)
4. COc1ccc(-c2c(-c3cc(OC)cc(OC)c3)n(C)c3ccc(-c4cc[nH]n4)cc23)cc1

23.2 µM (active)
32 µM (active)
13.1 µM (active)
> 40 µM (active)

* * *

# Target system: Fatty acid synthase (Homo sapiens, UniProt P49327)
# Sequence (P49327 whole entry): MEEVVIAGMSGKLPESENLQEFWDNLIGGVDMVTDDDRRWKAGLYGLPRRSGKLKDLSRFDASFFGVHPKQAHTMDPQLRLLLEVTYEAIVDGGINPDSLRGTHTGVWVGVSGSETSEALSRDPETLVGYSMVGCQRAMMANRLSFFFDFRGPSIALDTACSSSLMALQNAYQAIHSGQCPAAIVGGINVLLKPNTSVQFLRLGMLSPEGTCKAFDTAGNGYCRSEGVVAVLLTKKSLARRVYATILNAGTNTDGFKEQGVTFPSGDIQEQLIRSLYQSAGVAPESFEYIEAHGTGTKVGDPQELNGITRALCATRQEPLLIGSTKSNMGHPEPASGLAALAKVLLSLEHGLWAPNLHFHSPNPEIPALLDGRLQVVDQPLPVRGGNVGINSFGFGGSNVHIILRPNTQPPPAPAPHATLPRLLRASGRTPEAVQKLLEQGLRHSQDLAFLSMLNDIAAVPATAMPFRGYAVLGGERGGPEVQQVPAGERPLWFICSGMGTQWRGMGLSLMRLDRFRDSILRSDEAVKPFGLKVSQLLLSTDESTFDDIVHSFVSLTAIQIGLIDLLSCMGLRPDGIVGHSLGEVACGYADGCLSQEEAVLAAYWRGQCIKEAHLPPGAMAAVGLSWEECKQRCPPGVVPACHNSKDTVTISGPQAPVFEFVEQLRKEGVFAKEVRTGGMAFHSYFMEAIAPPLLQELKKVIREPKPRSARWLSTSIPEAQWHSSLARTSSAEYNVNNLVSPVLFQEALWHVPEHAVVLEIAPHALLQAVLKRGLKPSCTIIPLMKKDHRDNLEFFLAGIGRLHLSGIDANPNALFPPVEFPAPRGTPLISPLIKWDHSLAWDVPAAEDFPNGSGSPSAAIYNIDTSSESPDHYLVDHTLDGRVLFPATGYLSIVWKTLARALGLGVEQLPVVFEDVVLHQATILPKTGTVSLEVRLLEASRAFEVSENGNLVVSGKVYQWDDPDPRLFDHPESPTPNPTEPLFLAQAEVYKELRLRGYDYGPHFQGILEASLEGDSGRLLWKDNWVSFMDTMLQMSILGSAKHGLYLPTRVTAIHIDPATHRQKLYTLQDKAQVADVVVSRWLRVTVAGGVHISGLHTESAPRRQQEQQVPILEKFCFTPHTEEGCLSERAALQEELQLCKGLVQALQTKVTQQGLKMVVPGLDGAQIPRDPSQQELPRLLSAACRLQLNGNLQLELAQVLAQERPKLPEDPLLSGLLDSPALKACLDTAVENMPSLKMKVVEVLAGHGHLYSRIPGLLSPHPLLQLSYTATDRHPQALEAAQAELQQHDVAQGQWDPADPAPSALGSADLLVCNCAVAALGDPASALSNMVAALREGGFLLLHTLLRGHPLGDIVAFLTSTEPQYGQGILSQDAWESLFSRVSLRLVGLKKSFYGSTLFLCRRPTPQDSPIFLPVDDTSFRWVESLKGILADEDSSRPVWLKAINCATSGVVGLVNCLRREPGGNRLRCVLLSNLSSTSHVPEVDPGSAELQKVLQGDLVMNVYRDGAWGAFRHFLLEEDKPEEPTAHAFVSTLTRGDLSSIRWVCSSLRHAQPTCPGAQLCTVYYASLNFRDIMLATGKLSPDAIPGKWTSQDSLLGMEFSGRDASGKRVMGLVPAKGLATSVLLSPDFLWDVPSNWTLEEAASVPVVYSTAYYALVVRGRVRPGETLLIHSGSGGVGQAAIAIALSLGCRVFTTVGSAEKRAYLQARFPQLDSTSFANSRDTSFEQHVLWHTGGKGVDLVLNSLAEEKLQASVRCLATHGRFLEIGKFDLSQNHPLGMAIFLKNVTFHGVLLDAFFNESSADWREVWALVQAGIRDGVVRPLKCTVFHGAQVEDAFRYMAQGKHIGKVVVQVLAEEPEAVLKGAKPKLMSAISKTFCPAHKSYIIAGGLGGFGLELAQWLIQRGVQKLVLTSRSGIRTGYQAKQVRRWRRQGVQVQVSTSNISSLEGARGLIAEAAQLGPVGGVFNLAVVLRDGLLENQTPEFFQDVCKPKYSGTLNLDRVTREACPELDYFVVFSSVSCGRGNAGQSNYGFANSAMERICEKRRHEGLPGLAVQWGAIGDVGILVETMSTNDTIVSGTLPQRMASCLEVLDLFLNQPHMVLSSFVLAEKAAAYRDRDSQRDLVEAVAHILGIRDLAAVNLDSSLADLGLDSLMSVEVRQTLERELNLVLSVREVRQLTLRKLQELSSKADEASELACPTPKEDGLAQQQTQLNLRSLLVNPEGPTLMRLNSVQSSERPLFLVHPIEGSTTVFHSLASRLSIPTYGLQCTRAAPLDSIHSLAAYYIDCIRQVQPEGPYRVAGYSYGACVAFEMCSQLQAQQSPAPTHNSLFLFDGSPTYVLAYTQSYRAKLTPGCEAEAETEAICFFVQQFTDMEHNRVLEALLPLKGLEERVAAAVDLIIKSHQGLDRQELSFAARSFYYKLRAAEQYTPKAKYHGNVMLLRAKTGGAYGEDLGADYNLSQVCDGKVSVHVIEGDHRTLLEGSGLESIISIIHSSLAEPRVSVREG
# Experiment summary: inhibition of human FAS-TE enzyme activity – biochemical, kinetic fluorescence intensity, dose response (AID 624326);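 note: rate of fluorescence rise from hydrolysis of a fluorogenic O-methyl fluorescein ester substrate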
# Format: functional
Activity calls are given as the source filed them.
Recorded metric: IC50

# map each compound to its IC50
1. O=C(c1cc(COc2cccc(C(F)(F)F)c2)on1)N1C[C@@H]2CCC[C@H]1C2
2. O=C(CSc1ccc([N+](=O)[O-])cn1)Nc1ccc2c(c1)OCCO2

1: 10.7 µM (active); 2: 4.17 µM (active)

* * *

# Target system: Voltage-dependent T-type calcium channel subunit alpha-1H (Homo sapiens);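 note: channel activity triggered by adding a high calcium stimulation buffer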
# Sequence (O95180 whole entry): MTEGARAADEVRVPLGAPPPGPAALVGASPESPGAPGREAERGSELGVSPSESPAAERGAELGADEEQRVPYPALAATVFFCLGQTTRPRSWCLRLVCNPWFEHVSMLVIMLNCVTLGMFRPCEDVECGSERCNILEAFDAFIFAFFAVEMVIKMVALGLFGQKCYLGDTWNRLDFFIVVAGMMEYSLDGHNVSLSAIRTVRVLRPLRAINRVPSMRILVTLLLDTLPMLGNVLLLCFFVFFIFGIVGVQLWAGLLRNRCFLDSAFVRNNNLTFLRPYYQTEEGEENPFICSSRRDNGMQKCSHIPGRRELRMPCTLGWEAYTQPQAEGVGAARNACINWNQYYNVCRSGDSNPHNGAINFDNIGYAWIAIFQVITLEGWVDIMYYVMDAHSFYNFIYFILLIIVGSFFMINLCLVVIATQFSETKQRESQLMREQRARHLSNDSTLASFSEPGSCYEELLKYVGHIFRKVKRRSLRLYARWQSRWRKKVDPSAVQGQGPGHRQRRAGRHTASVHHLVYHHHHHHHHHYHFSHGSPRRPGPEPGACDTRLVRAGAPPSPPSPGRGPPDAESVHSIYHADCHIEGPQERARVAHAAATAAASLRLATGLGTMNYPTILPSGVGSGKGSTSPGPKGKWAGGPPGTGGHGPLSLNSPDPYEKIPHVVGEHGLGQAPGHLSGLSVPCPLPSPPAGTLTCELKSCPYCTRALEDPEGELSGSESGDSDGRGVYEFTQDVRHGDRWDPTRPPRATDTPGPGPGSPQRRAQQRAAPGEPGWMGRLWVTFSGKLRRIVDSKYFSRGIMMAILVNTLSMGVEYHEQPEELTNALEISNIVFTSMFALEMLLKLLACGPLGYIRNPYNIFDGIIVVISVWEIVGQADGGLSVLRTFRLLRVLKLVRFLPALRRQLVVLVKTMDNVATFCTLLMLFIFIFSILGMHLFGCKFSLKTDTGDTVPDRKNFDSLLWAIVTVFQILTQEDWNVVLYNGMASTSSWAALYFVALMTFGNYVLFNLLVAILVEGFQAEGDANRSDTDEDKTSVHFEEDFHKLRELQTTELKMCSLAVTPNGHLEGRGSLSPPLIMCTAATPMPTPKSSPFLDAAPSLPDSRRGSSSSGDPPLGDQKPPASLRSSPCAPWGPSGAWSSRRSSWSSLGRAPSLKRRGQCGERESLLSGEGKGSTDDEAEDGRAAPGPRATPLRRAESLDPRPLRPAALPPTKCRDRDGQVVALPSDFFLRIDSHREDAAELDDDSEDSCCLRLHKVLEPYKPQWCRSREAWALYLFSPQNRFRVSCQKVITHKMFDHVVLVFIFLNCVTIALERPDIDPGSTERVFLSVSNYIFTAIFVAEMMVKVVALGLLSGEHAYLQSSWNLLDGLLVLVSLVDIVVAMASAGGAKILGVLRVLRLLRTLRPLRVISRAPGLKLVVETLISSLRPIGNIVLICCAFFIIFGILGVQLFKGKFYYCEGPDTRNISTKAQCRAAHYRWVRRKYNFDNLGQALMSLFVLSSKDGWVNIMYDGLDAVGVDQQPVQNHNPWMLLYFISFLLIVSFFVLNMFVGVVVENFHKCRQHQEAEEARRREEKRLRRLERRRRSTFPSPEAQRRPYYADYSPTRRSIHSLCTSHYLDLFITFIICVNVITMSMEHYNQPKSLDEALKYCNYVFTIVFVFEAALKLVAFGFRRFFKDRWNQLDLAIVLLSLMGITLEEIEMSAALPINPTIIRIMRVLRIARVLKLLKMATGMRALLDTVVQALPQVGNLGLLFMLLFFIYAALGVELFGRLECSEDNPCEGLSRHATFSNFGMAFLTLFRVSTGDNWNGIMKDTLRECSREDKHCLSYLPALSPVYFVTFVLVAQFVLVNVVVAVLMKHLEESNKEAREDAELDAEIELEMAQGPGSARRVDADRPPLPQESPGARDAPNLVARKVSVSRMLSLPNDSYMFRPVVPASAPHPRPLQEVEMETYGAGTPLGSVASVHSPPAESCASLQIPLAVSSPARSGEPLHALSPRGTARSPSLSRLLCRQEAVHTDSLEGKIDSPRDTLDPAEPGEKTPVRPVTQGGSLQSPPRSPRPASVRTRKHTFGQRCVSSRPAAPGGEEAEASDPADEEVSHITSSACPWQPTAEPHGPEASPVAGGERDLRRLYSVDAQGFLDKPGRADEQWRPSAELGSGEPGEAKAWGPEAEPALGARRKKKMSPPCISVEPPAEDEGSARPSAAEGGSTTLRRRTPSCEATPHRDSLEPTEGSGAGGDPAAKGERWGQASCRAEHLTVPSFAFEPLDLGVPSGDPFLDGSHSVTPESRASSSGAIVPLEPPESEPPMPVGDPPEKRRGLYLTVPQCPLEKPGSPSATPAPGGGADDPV
# Format: functional
Activity calls are given as the source filed them.
Recorded metric: EC50

Recorded EC50, per entry:
CCN1/C(=C/c2ccc3cccc(C)c3[n+]2CC)Sc2ccccc21    1.77 µM (active)
O=C(CSc1nnc(CNC(=O)c2cccs2)o1)Nc1cccc(C(F)(F)F)c1    4.46 µM (active)
CCOc1ccccc1OCCCCCc1c(C)n[nH]c1C    8.55 µM (active)

// moving on: another record for EC50
Can you look up the measured EC50 of `CC(C)(C)n1ncc2c(=O)n(CC(=O)Nc3ccc(Cl)cc3)cnc21` for me?
4.08 µM (active)

* * *

Estrogen receptor beta (Homo sapiens): recorded IC50 for assorted molecules;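 note: recombinant ER-beta bound to coactivator SRC1 peptide in presence of estradiol agonist; inhibitors block coactivator peptide binding and lower the FRET signal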
Activity calls are given as the source filed them.

Examples from the recorded data:
O=C(Nc1ccc(O)cc1C(=O)O)c1ccc2c(c1)C(=O)N(Cc1ccco1)C2=O    13.8 µM (active)
N#CC1=C(SCC(=O)Nc2cccc3cccnc23)NC(=O)C(C#N)C12CCCCC2 (stereo unspecified)    > 50 µM (not active)
COc1cccc(-c2[nH]nc3c2C(c2ccoc2)C(C#N)=C(N)O3)c1 (stereo unspecified)    20 µM (active)
Cc1nccn1-c1ncnc2sc3c(c12)CCCC3    > 50 µM (not active)
COC(=O)c1sc2nc(-c3ccco3)ccc2c1N    34.7 µM (not active)

Moving on to another molecule below.
For `NC(=O)c1ccsc1NC(=O)COC(=O)Cc1ccsc1` , what is its reported IC50?
5.55 µM (active)
